experiment: Acute toxicity in mice on oral administration; assay type: in vivo; details: mouse, in vivo, Table II, first series, read-out: LD 50 (acute toxicity)
ENDPOINT NAME: LD50

Answered cases to consult:
Enquiry: // fetch LD50 given entry CC(=O)NCCOC(=O)C(Oc1ccc(F)c(C(F)(F)F)c1)c1ccc(Cl)cc1 (stereo not drawn)
Return: 2000 mg/kg

Enquiry: // fetch LD50 given entry O=C(O)C(Oc1ccc(F)c(C(F)(F)F)c1)c1ccc(Cl)cc1 (stereo not drawn)
Return: 2000 mg/kg

Enquiry: // fetch LD50 given entry NC(=O)C(Oc1ccc(F)c(C(F)(F)F)c1)c1ccc(Cl)cc1 (stereo not drawn)
Return: > 2000 mg/kg

Others:
Enquiry: // fetch LD50 given entry O=C(NCCO)C(Oc1ccc(F)c(C(F)(F)F)c1)c1ccc(Cl)cc1 (stereo not drawn)
Return: > 2000 mg/kg

Enquiry: // fetch LD50 given entry CCOC(=O)C(Oc1ccc(F)c(C(F)(F)F)c1)c1ccc(Cl)cc1 (stereo not drawn)
Return: > 2500 mg/kg

====

test: Acute toxicity in mice on oral administration; assay type: in vivo; conditions: mouse, in vivo, Table II, first series, read-out: LD 50 (acute toxicity)
ENDPOINT NAME: LD50 (mg/kg)
Give the quantity in mg/kg, number only.

Enquiry: // fetch LD50 given entry CCOC(=O)C(C)(C)Oc1ccc(Cl)cc1 [Clofibrate, reference compound]
Return: 1300

With those in mind, consider the next compound.
Enquiry: // fetch LD50 given entry CC(=O)NCCOC(=O)C(Oc1cccc(C(F)(F)F)c1)c1ccc(Cl)cc1 (stereo not shown) [Halofenate, reference compound]
Return: 1800
